Target: T1, CD3-specific binding domain (SEQ ID NO: 3) (biotinylated when used as immobilized SPR ligand (site not stated))
T1 construct: also called α-CD3 DARPin
T1 chain: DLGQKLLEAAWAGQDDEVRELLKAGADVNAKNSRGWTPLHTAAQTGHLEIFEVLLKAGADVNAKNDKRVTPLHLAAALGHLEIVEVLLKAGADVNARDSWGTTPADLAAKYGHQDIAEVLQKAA
Experiment: SPR (ProteOn), biotinylated CD3-specific binding domain immobilized, multi-trace 50-0.195 nM, 25 C
experimental-endpoint: kon (M⁻¹ s⁻¹)
Write the value in M⁻¹ s⁻¹ as a bare number.

I have this binder here, 2-in-1 DARPin 12 (SEQ ID NO: 7) (designed binder, N3C mono-domain; purified by its His-tag) DLDKKLLEAARAGQDDEVRILLKAGADVNAKDSTGWTPLHLAAPWGHPEIVEVLLKAGADVNAKDVYGWTPLHLAAAAGHLEIVEVLLKAGADVNAKDWLGWTPLHLAASHGHLEIVEVLLKAGADVNAQDKSGKTPADLAARAGHQDIAEVLQKAA , and I need its recorded kon.
624000

More entries:
# input binder: 2-in-1 DARPin 19 (SEQ ID NO: 12) (designed binder, N4C mono-domain; purified by its His-tag) DLDKKLLEAARAGQDDEVRILLKAGADVNAKDSTGWTPLHLAAPWGHPEIVEVLLKAGADVNAKDFKGWTPLHLAAAAGHLEIVEVLLKAGADVNAKDVYGWTPLHLAAAAGHLEIVEVLLKAGADVNAKDWLGWTPLHLAASHGHLEIVEVLLKAGADVNAQDKSGKTPADLAARAGHQDIAEVLQKAA ; wanted: its kon
450000

Data provenance is patent US20250042957A1.
